These entries and their values trace back to ChEMBL document CHEMBL3351780.

Assay: Cytotoxicity against human LO2 cells assessed as inhibition of cell viability at 16 ug/ml after 24 hrs by MTT assay
Assay type: cell-based, L02
Conditions: read-out: INH

[
  {
    "MOLECULE": "Cc1ncc([N+](=O)[O-])n1CC(O)Cn1cc(C(=O)O)c(=O)c2ccc(C(F)(F)F)cc21 (stereo unspecified)",
    "cytotoxicity at 24 h, 16 ug/ml / %": 6.7
  }
]

###

Tested on: Shigella dysenteriae
Assay: Antibacterial activity against Shigella dysenteriae by two-fold serial dilution method
Format: functional
MEASUREMENT_TYPE: MIC (µg/mL)

[
  {
    "COMPOUND": "CCOC(=O)c1cn(CC(O)Cn2cnc([N+](=O)[O-])c2)c2ccc(F)cc2c1=O (racemic)",
    "MEASUREMENT_TYPE": "MIC",
    "OBS_VALUE": 32
  },
  {
    "COMPOUND": "Cc1ncc([N+](=O)[O-])n1CC(O)Cn1cc(C(=O)O)c(=O)c2cccc(F)c21 (centres undefined)",
    "MEASUREMENT_TYPE": "MIC",
    "OBS_VALUE": 8
  },
  {
    "COMPOUND": "Cc1ccc2c(c1)c(=O)c(C(=O)O)cn2CC(O)Cn1c([N+](=O)[O-])cnc1C (centres undefined)",
    "MEASUREMENT_TYPE": "MIC",
    "OBS_VALUE": 8
  },
  {
    "COMPOUND": "CCOC(=O)c1cn(CC(O)Cn2c([N+](=O)[O-])cnc2C)c2cc(Cl)c(F)cc2c1=O (racemic)",
    "MEASUREMENT_TYPE": "MIC",
    "OBS_VALUE": 16
  }
]

###

Experiment: Cytotoxicity against human LO2 cells assessed as inhibition of cell viability at 128 ug/ml after 24 hrs by MTT assay
Assay type: cell-based, L02
Details: read-out: INH
MEASUREMENT_TYPE: cytotoxicity at 24 h, 128 ug/ml (%)

[
  {
    "MOLECULE": "Cc1ncc([N+](=O)[O-])n1CC(O)Cn1cc(C(=O)O)c(=O)c2ccc(C(F)(F)F)cc21 (stereo unspecified)",
    "MEASUREMENT_TYPE": "cytotoxicity at 24 h, 128 ug/ml",
    "OBS_VALUE": 17.5
  }
]

###

System: Shigella dysenteriae
Assay: Antibacterial activity against Shigella dysenteriae by two-fold serial dilution method
Type: functional
Please assign no whenever MIC is at or above 8 µg/mL, and yes whenever it is below.

[
  {
    "COMPOUND": "COc1ccc2c(c1)c(=O)c(C(=O)O)cn2CC(O)Cn1c([N+](=O)[O-])cnc1C (configuration not stated)",
    "LABEL_VALUE": "no"
  },
  {
    "COMPOUND": "CCOC(=O)c1cn(CC(O)Cn2c([N+](=O)[O-])cnc2C)c2ccc(C)cc2c1=O (racemic)",
    "LABEL_VALUE": "yes"
  },
  {
    "COMPOUND": "Cc1ncc([N+](=O)[O-])n1CC(O)Cn1cc(C(=O)O)c(=O)c2cc(F)ccc21 (configuration not stated)",
    "LABEL_VALUE": "yes"
  },
  {
    "COMPOUND": "Cc1ncc([N+](=O)[O-])n1CC(O)Cn1cc(C(=O)O)c(=O)c2cc(F)cc(F)c21 (configuration not stated)",
    "LABEL_VALUE": "yes"
  },
  {
    "COMPOUND": "CCOC(=O)c1cn(CC(O)Cn2cnc([N+](=O)[O-])c2)c2ccc(OC)cc2c1=O (racemic)",
    "LABEL_VALUE": "no"
  },
  {
    "COMPOUND": "Cc1ncc([N+](=O)[O-])n1CC(O)Cn1cc(C(=O)O)c(=O)c2ccc(C(F)(F)F)cc21 (configuration not stated)",
    "LABEL_VALUE": "yes"
  },
  {
    "COMPOUND": "CCOC(=O)c1cn(CC(O)Cn2c([N+](=O)[O-])cnc2C)c2ccc(OC)cc2c1=O (racemic)",
    "LABEL_VALUE": "no"
  },
  {
    "COMPOUND": "COc1ccc2c(c1)c(=O)c(C(=O)O)cn2CC(O)Cn1cnc([N+](=O)[O-])c1 (configuration not stated)",
    "LABEL_VALUE": "no"
  },
  {
    "COMPOUND": "CCOC(=O)c1cn(CC(O)Cn2cnc([N+](=O)[O-])c2)c2cc(C(F)(F)F)ccc2c1=O (racemic)",
    "LABEL_VALUE": "no"
  },
  {
    "COMPOUND": "CCOC(=O)c1cn(CC(O)Cn2c([N+](=O)[O-])cnc2C)c2cc(C(F)(F)F)ccc2c1=O (racemic)",
    "LABEL_VALUE": "yes"
  },
  {
    "COMPOUND": "CCOC(=O)c1cn(CC2CO2)c2cc(Cl)c(F)cc2c1=O (racemic)",
    "LABEL_VALUE": "no"
  },
  {
    "COMPOUND": "CCOC(=O)c1cn(CC(O)Cn2cnc([N+](=O)[O-])c2)c2c(F)cccc2c1=O (racemic)",
    "LABEL_VALUE": "no"
  },
  {
    "COMPOUND": "CCOC(=O)c1cn(CC2CO2)c2ccc(OC)cc2c1=O (racemic)",
    "LABEL_VALUE": "no"
  },
  {
    "COMPOUND": "O=C(O)c1cn(CC(O)Cn2cnc([N+](=O)[O-])c2)c2c(F)cc(F)cc2c1=O (configuration not stated)",
    "LABEL_VALUE": "no"
  },
  {
    "COMPOUND": "O=C(O)c1cn(CC(O)Cn2cnc([N+](=O)[O-])c2)c2cc(Cl)c(F)cc2c1=O (configuration not stated)",
    "LABEL_VALUE": "no"
  }
]

###

System: Streptococcus pneumoniae
Assay: Antibacterial activity against Streptococcus pneumoniae by two-fold serial dilution method
Format: functional
Quick reference for MIC among some molecules
MEASUREMENT_TYPE: MIC

[
  {
    "MOLECULE": "Cc1ccc2c(c1)c(=O)c(C(=O)O)cn2CC(O)Cn1c([N+](=O)[O-])cnc1C (configuration not stated)",
    "OBS_VALUE": "4 µg/mL"
  },
  {
    "MOLECULE": "Cc1ncc([N+](=O)[O-])n1CC(O)Cn1cc(C(=O)O)c(=O)c2cc(F)c(Cl)cc21 (configuration not stated)",
    "OBS_VALUE": "8 µg/mL"
  },
  {
    "MOLECULE": "O=C(O)c1cn(CC(O)Cn2cnc([N+](=O)[O-])c2)c2c(F)cc(F)cc2c1=O (configuration not stated)",
    "OBS_VALUE": "16 µg/mL"
  },
  {
    "MOLECULE": "Cc1ncc([N+](=O)[O-])n1CC(O)Cn1cc(C(=O)O)c(=O)c2cc(F)cc(F)c21 (configuration not stated)",
    "OBS_VALUE": "16 µg/mL"
  },
  {
    "MOLECULE": "O=C(O)c1cn(CC(O)Cn2cnc([N+](=O)[O-])c2)c2cc(C(F)(F)F)ccc2c1=O (configuration not stated)",
    "OBS_VALUE": "16 µg/mL"
  },
  {
    "MOLECULE": "CCn1cc(C(=O)O)c(=O)c2cc(F)c(N3CCNCC3)cc21",
    "OBS_VALUE": "1 µg/mL"
  },
  {
    "MOLECULE": "O=C(O)c1cn(CC(O)Cn2cnc([N+](=O)[O-])c2)c2c(Cl)cc(Cl)cc2c1=O (configuration not stated)",
    "OBS_VALUE": "8 µg/mL"
  },
  {
    "MOLECULE": "O=C(O)c1cn(CC(O)Cn2cnc([N+](=O)[O-])c2)c2c(F)cccc2c1=O (configuration not stated)",
    "OBS_VALUE": "32 µg/mL"
  },
  {
    "MOLECULE": "COc1ccc2c(c1)c(=O)c(C(=O)O)cn2CC(O)Cn1c([N+](=O)[O-])cnc1C (configuration not stated)",
    "OBS_VALUE": "64 µg/mL"
  },
  {
    "MOLECULE": "Cc1ncc([N+](=O)[O-])n1CC(O)Cn1cc(C(=O)O)c(=O)c2cc(F)ccc21 (configuration not stated)",
    "OBS_VALUE": "8 µg/mL"
  },
  {
    "MOLECULE": "Cc1ncc([N+](=O)[O-])n1CC(O)Cn1cc(C(=O)O)c(=O)c2cccc(F)c21 (configuration not stated)",
    "OBS_VALUE": "32 µg/mL"
  },
  {
    "MOLECULE": "O=C(O)c1cn(CC(O)Cn2cnc([N+](=O)[O-])c2)c2ccc(F)cc2c1=O (configuration not stated)",
    "OBS_VALUE": "8 µg/mL"
  },
  {
    "MOLECULE": "Cc1ncc([N+](=O)[O-])n1CC(O)Cn1cc(C(=O)O)c(=O)c2ccc(C(F)(F)F)cc21 (configuration not stated)",
    "OBS_VALUE": "4 µg/mL"
  },
  {
    "MOLECULE": "COc1ccc2c(c1)c(=O)c(C(=O)O)cn2CC(O)Cn1cnc([N+](=O)[O-])c1 (configuration not stated)",
    "OBS_VALUE": "64 µg/mL"
  },
  {
    "MOLECULE": "Cc1ncc([N+](=O)[O-])n1CC(O)Cn1cc(C(=O)O)c(=O)c2cc(Cl)cc(Cl)c21 (configuration not stated)",
    "OBS_VALUE": "16 µg/mL"
  },
  {
    "MOLECULE": "O=C(O)c1cn(CC(O)Cn2cnc([N+](=O)[O-])c2)c2cc(Cl)c(F)cc2c1=O (configuration not stated)",
    "OBS_VALUE": "16 µg/mL"
  },
  {
    "MOLECULE": "Cc1ccc2c(c1)c(=O)c(C(=O)O)cn2CC(O)Cn1cnc([N+](=O)[O-])c1 (configuration not stated)",
    "OBS_VALUE": "32 µg/mL"
  }
]
